# system_tested: dihydropyrimidinase from P. aeruginosa PAO1 (Pseudomonas aeruginosa)
# protocol_notes: Substrate specificity / Michaelis-Menten kinetics of dihydropyrimidinase
# Assay type: biochemical
# reported_conditions: compound as substrate
recorded_endpoint: V max (µmol/mg/min)
Give the value in µmol/mg/min but do not write µmol/mg/min after it.

[Q] Form field: reported V max of O=C1CCNC(=O)N1 [dihydrouracil]
[A] 7.6

[Q] Form field: reported V max of CCCC1NC(=O)NC1=O (centres unmarked) [5-propyl-hydantoin]
[A] 1.2

[Q] Form field: reported V max of O=C1NC(=O)c2ccccc21 [phthalimide]
[A] 2.7

----------
# system_tested: dihydropyrimidinase from P. aeruginosa PAO1 (Pseudomonas aeruginosa, UniProt Q9I676)
# Sequence (Q9I676 whole entry): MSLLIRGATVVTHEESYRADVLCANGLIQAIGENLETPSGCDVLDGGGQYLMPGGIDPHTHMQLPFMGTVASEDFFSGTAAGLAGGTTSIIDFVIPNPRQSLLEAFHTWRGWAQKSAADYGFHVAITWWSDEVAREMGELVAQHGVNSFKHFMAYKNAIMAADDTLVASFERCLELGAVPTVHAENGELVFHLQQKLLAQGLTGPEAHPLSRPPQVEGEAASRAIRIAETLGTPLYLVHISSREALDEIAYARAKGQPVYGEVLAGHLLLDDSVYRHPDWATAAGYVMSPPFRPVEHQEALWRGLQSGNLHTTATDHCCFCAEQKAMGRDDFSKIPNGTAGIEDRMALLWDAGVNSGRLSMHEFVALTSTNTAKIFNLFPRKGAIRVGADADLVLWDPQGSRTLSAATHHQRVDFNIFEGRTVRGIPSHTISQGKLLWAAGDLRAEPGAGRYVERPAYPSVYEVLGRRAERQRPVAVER
# Assay type: biochemical
# reported_conditions: 1 mM added to reaction mixture
recorded_endpoint: Effect of metal addition on dihydropyrimidinase activity

# example entries with known answers
[Cl][Mn][Cl] [MnCl2] | activated
[Cl-].[Cl-].[Mg+2] [MgCl2] | not useful
[Cl-].[Cl-].[Zn+2] [ZnCl2] | activated
[Cl][Ni][Cl] [NiCl2] | not useful

[Q] Form field: reported Effect of metal addition on dihydropyrimidinase activity of [Cl][Cd][Cl] [CdCl2]
[A] not useful

[Q] Form field: reported Effect of metal addition on dihydropyrimidinase activity of [Ca+2].[Cl-].[Cl-] [CaCl2]
[A] not useful

----------
# system_tested: dihydropyrimidinase from P. aeruginosa PAO1 (Pseudomonas aeruginosa, UniProt Q9I676)
# protocol_notes: Substrate specificity / Michaelis-Menten kinetics of dihydropyrimidinase
# Format: biochemical
# reported_conditions: compound as substrate
recorded_endpoint: K m (µM)
Give the value in µM but do not write µM after it.

[Q] Hi! What's the reported K m for O=C1CCNC(=O)N1 [dihydrouracil] on dihydropyrimidinase from P. aeruginosa PAO1 (Pseudomonas aeruginosa, UniProt Q9I676)?
[A] 700

[Q] Hi! What's the reported K m for O=C1NC(=O)c2ccccc21 [phthalimide] on dihydropyrimidinase from P. aeruginosa PAO1 (Pseudomonas aeruginosa, UniProt Q9I676)?
[A] 1000

[Q] Hi! What's the reported K m for CCCC1NC(=O)NC1=O (centres unmarked) [5-propyl-hydantoin] on dihydropyrimidinase from P. aeruginosa PAO1 (Pseudomonas aeruginosa, UniProt Q9I676)?
[A] 8100

----------
# system_tested: dihydropyrimidinase from P. aeruginosa PAO1 (Pseudomonas aeruginosa, UniProt Q9I676)
# Assay type: biochemical
# reported_conditions: specific activity relative to no metal added; metal ion 1 mM
Binary call on Fold: Y from 1 upward, N beneath that.

[Q] Hi, just wondering whether [Cl][Ni][Cl] shows Fold of 1 or higher.
[A] Y

[Q] Hi, just wondering whether [Cl][Mn][Cl] shows Fold of 1 or higher.
[A] Y

[Q] Hi, just wondering whether [Cl][Cd][Cl] shows Fold of 1 or higher.
[A] N

[Q] Hi, just wondering whether [Cl-].[Cl-].[Zn+2] shows Fold of 1 or higher.
[A] Y

----------
Provide the recorded Specific activity for the entries that follow.
# system_tested: dihydropyrimidinase from P. aeruginosa PAO1 (Pseudomonas aeruginosa)
# Format: biochemical
# reported_conditions: metal ion 1 mM added to reaction mixture; enzyme purified without metal supplement; dihydrouracil substrate
Give the value in µmol/mg/min but do not write µmol/mg/min after it.

[Q] Form field: reported Specific activity of [Cl][Cd][Cl] [CdCl2]
[A] 0.74

[Q] Form field: reported Specific activity of [Cl-].[Cl-].[Mg+2] [MgCl2]
[A] 0.82

[Q] Form field: reported Specific activity of [Ca+2].[Cl-].[Cl-] [CaCl2]
[A] 0.82

[Q] Form field: reported Specific activity of [Cl-].[Cl-].[Zn+2] [ZnCl2]
[A] 2.90

[Q] Form field: reported Specific activity of [Cl][Mn][Cl] [MnCl2]
[A] 1.72

[Q] Form field: reported Specific activity of [Cl][Ni][Cl] [NiCl2]
[A] 0.91

----------
# system_tested: dihydropyrimidinase from P. aeruginosa PAO1 (Pseudomonas aeruginosa)
# protocol_notes: Spectrophotometric enzyme assay: inhibition of dihydropyrimidinase
# Type: biochemical
# reported_conditions: IC50, 5-propyl-hydantoin as substrate
recorded_endpoint: IC50 (µM)
Give the value in µM but do not write µM after it.

[Q] Hi! What's the reported IC50 for O=c1c(O)c(-c2cc(O)c(O)c(O)c2)oc2cc(O)cc(O)c12 on dihydropyrimidinase from P. aeruginosa PAO1 (Pseudomonas aeruginosa)?
[A] 63

[Q] Hi! What's the reported IC50 for O=C1c2c(O)cc(O)cc2O[C@H](c2cc(O)c(O)c(O)c2)[C@H]1O [dihydromyricetin] on dihydropyrimidinase from P. aeruginosa PAO1 (Pseudomonas aeruginosa)?
[A] 40

----------
# system_tested: dihydropyrimidinase from P. aeruginosa PAO1 (Pseudomonas aeruginosa, UniProt Q9I676)
# protocol_notes: Spectrophotometric enzyme assay: inhibition of dihydropyrimidinase
# Type: biochemical
# reported_conditions: IC50, dihydrouracil as substrate
recorded_endpoint: pIC50
pIC50 here: minus log base 10 of the concentration, concentration in moles per litre.

[Q] Hi! What's the reported pIC50 for O=C1c2c(O)cc(O)cc2O[C@H](c2cc(O)c(O)c(O)c2)[C@H]1O [dihydromyricetin] on dihydropyrimidinase from P. aeruginosa PAO1 (Pseudomonas aeruginosa, UniProt Q9I676)?
[A] 4.32

[Q] Hi! What's the reported pIC50 for O=c1c(O)c(-c2cc(O)c(O)c(O)c2)oc2cc(O)cc(O)c12 on dihydropyrimidinase from P. aeruginosa PAO1 (Pseudomonas aeruginosa, UniProt Q9I676)?
[A] 4.08
